Ref: patent US20090325867A1

- Test system: Ramos cells
- Procedure summary: Caspase-8 and -3 processing by Western blot in Ramos cells
- Format: cell-based
- Experimental context: FIG. 1D

>  <Molecule>
wild type: His-tagged human recombinant TRAIL residues 95-281, wild type sequence (protein, biotin (site not stated) in the DISC analysis only; not biotinylated in the apoptosis assays) TSEETISTVQEKQQNISPLVRERGPQRVAAHITGTRGRSNTLSSPNSKNEKALGRKINSWESSRSGHSFLSNLHLRNGELVIHEKGFYYIYSQTYFRFQEEIKENTKNDKQMVQYIYKYTSYPDPILLMKSARNSCWSKDAEYGLYSIYQGGIFELKENDRIFVSVTNEHLIDMDHEASFFGAFLVG

>  <processing of caspase-8 and caspase-3>
induced the processing

$$$$
>  <Molecule>
TRAIL.R1-5: 6His TRAIL 95-281 with 193Ser, 199Val, 201Arg, 213Trp and 215Asp (protein, biotin (site not stated) in the DISC analysis only; not biotinylated in the apoptosis assays, 6His TRAIL 95-281 with 193Ser, 199Val, 201Arg, 213Trp and 215Asp) TSEETISTVQEKQQNISPLVRERGPQRVAAHITGTRGRSNTLSSPNSKNEKALGRKINSWESSRSGHSFLSNLHLRNGELVIHEKGFYYIYSQTYFRFSEEIKEVTRNDKQMVQYIYKWTDYPDPILLMKSARNSCWSKDAEYGLYSIYQGGIFELKENDRIFVSVTNEHLIDMDHEASFFGAFLVG

>  <processing of caspase-8 and caspase-3>
induced the processing

$$$$
>  <Molecule>
TRAIL.R2-6: His-TRAIL (95-281) with 189Gln, 191Lys, 193Arg, 264Arg, 266Leu, 267Gln; TRAIL-R2 selective mutant (protein, biotin (site not stated) in the DISC analysis only; not biotinylated in the apoptosis assays) TSEETISTVQEKQQNISPLVRERGPQRVAAHITGTRGRSNTLSSPNSKNEKALGRKINSWESSRSGHSFLSNLHLRNGELVIHEKGFYYIYSQTQFKFREEIKENTKNDKQMVQYIYKYTSYPDPILLMKSARNSCWSKDAEYGLYSIYQGGIFELKENDRIFVSVTNERLLQMDHEASFFGAFLVG

>  <processing of caspase-8 and caspase-3>
not

$$$$
